Assay: Half life in rat
Type: ADME, organism-based
Conditions: in vivo
value kind: half-life (h)
Give bare numbers, in h.

Could you please provide reported half-life for `NC1(C(=O)NCc2ccc(Cl)cc2)CCN(c2ncnc3[nH]ccc23)CC1` ? Thanks! 2.3

====

Assay: in vitro
Details: human, hepatocytes
value kind: hepatocyte CLint

Consider the molecule `NC1(C(=O)NCc2ccc(Cl)cc2)CCN(c2ncnc3[nH]ccc23)CC1` . State its measured hepatocyte CLint. 15 µL/min/1e6 cells

====

Experiment: Oral bioavailability in dog
Assay type: ADME, organism-based, Canis lupus familiaris
Details: in vivo
value kind: bioavailability (%)
Give bare numbers, in %.

Given `NC1(C(=O)NCc2ccc(Cl)cc2)CCN(c2ncnc3[nH]ccc23)CC1` , respond with its bioavailability. 70
